// provenance: paper PMC8306933

# MEASURED TARGET: butyrylcholinesterase from equine serum (Equus caballus)
# Construct: purchased Sigma-Aldrich (St. Louis, MO, USA); host or cells: equine serum
# Sequence (P81908 whole entry): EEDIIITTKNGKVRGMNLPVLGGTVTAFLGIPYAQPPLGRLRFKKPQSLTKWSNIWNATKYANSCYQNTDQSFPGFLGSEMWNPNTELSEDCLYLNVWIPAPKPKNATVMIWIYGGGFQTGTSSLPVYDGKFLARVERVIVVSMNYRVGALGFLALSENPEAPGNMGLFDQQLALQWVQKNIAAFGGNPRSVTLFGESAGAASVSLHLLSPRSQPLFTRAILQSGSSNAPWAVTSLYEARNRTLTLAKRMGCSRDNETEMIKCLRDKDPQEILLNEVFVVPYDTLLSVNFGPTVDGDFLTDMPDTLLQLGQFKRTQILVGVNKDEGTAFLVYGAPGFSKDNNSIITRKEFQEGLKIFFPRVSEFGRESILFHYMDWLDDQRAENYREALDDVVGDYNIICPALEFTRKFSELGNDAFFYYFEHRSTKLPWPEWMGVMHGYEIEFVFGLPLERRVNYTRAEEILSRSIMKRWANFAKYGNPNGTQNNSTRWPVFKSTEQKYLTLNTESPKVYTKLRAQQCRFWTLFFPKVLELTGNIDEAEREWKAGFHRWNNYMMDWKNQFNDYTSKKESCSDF
# TEST DESCRIPTION: BChE inhibition (Ellman's method)
# Format: biochemical
# TEST PARAMETERS: mean ± SD (n = 3); tested 0–1 mM; read-out: IC50 BChE
pIC50: −log10 of the molar value.
Reported pIC50 is given for each of the following molecules.

# annotated cases, reported pIC50 shown
COc1ccc(CCO[C@@H]2O[C@H](CO)[C@@H](OC(=O)/C=C/c3ccc(O)c(O)c3)[C@H](O[C@@H]3O[C@@H](C)[C@H](O)[C@@H](O)[C@H]3O)[C@H]2O)cc1O [Compound 6, jionoside D] : < 3.00
CC1OC(OC2C(O)C(OCCc3ccccc3)OC(CO)C2OC(=O)C=Cc2ccc(O)c(O)c2)C(O)C(O)C1O (stereo not drawn) [Compound 5, jionoside C] : < 3.00
CC1=CC(=O)CC(C)(C)[C@H]1CC[C@@H](C)O[C@@H]1O[C@H](CO)[C@@H](O)[C@H](O)[C@H]1O [Compound 3, byzantionoside B] : < 3.00

## Input Give the measured pIC50 of COc1cc(/C=C/C(=O)O[C@H]2[C@H](O[C@@H]3O[C@@H](C)[C@H](O)[C@@H](O)[C@H]3O[C@@H]3O[C@H](CO)[C@@H](O)[C@H](O)[C@H]3O)[C@@H](O)[C@H](OCCc3ccc(O)c(O)c3)O[C@@H]2CO)ccc1O [Compound 8, incanoside C] .
## Output < 3.00

## Input Follow-up entry: COc1ccc(CCO[C@@H]2O[C@H](CO)[C@@H](OC(=O)/C=C/c3ccc(O)c(O)c3)[C@H](O[C@@H]3O[C@@H](C)[C@H](O)[C@@H](O)[C@H]3O)[C@H]2O)cc1OC [Compound 7, brachynoside]
## Output < 3.00

## Input Okay, and `O=C(O)C[C@H]1CCC(=O)[C@@H]1C/C=C\CCO[C@@H]1O[C@H](COC(=O)/C=C/c2ccc(O)c(O)c2)[C@@H](O)[C@H](O)[C@H]1O` ?
## Output < 3.00

###

# MEASURED TARGET: α-amylase from porcine pancreas (Sus scrofa, UniProt P00690)
# Construct: purchased Sigma-Aldrich (St. Louis, MO, USA); host or cells: porcine pancreas
# Sequence (P00690 16-511): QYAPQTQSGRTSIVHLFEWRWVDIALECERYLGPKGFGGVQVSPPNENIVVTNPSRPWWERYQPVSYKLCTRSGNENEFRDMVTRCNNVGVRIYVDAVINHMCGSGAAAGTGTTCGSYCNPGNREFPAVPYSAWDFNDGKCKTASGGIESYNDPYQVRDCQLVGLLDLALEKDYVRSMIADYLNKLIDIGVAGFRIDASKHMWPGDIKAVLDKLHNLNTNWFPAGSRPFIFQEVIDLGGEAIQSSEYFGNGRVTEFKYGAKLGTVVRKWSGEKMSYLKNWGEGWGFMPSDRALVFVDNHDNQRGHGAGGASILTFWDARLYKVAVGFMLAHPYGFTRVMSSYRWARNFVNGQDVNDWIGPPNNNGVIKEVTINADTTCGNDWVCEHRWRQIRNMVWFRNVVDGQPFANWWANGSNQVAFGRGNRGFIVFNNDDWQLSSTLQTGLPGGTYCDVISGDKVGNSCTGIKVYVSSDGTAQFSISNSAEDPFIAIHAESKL
# TEST DESCRIPTION: biochemical
# Type: biochemical
# TEST PARAMETERS: mean ± SD (n = 3); mammalian α-amylase; read-out: IC50 α-Amylase
The label 1 (yes) is reserved for IC50 strictly under 20 µM; 0 (no) covers values equal to or above it.

O=C(O)C[C@H]1CCC(=O)[C@@H]1C/C=C\CCO[C@@H]1O[C@H](COC(=O)/C=C/c2ccc(O)c(O)c2)[C@@H](O)[C@H](O)[C@H]1O [Compound 4] : 1 (yes)

## Input Please state whether IC50 is below 20 µM for COc1ccc(CCO[C@@H]2O[C@H](CO)[C@@H](OC(=O)/C=C/c3ccc(O)c(O)c3)[C@H](O[C@@H]3O[C@@H](C)[C@H](O)[C@@H](O)[C@H]3O)[C@H]2O)cc1O [Compound 6, jionoside D]
## Output 1 (yes)

## Input Also need CC1OC(OC2C(O)C(OCCc3ccccc3)OC(CO)C2OC(=O)C=Cc2ccc(O)c(O)c2)C(O)C(O)C1O (stereo not drawn) [Compound 5, jionoside C] , thanks.
## Output 0 (no)

## Input Would you kindly repeat that for COc1ccc(CCO[C@@H]2O[C@H](CO)[C@@H](OC(=O)/C=C/c3ccc(O)c(O)c3)[C@H](O[C@@H]3O[C@@H](C)[C@H](O)[C@@H](O)[C@H]3O)[C@H]2O)cc1OC [Compound 7, brachynoside] ?
## Output 0 (no)

## Input Cool, now CC1=CC(=O)CC(C)(C)[C@H]1CC[C@@H](C)O[C@@H]1O[C@H](CO)[C@@H](O)[C@H](O)[C@H]1O [Compound 3, byzantionoside B]
## Output 0 (no)

###

# MEASURED TARGET: Acetylcholinesterase from electric eel (Electrophorus electricus)
# Construct: purchased Sigma-Aldrich (St. Louis, MO, USA) type VI-s; host or cells: electric eel
# Sequence (O42275 24-633): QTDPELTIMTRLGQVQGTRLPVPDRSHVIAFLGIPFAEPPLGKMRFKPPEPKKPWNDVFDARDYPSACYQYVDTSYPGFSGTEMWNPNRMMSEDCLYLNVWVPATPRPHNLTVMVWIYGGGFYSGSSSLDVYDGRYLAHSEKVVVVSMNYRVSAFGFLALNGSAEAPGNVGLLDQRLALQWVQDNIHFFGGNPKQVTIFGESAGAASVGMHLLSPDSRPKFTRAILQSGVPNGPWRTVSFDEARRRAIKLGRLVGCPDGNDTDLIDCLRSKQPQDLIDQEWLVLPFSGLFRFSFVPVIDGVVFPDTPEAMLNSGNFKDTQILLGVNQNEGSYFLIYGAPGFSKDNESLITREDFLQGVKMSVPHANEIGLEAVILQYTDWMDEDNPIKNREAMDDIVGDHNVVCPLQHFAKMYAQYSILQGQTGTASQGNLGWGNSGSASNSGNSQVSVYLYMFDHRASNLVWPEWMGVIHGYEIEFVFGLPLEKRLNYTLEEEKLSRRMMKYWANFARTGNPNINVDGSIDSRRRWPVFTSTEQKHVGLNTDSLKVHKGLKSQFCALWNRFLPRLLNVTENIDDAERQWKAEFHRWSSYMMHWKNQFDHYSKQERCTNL
# TEST DESCRIPTION: biochemical
# Format: biochemical
# TEST PARAMETERS: mean ± SD (n = 3); tested 0–1 mM; read-out: IC50 AChE
pIC50: −log10 of the molar value.
QUANTITY: pIC50

CC1=CC(=O)CC(C)(C)[C@H]1CC[C@@H](C)O[C@@H]1O[C@H](CO)[C@@H](O)[C@H](O)[C@H]1O [Compound 3, byzantionoside B] : < 3.00

## Input I have this compound here, COc1cc(/C=C/C(=O)O[C@H]2[C@H](O[C@@H]3O[C@@H](C)[C@H](O)[C@@H](O)[C@H]3O[C@@H]3O[C@H](CO)[C@@H](O)[C@H](O)[C@H]3O)[C@@H](O)[C@H](OCCc3ccc(O)c(O)c3)O[C@@H]2CO)ccc1O [Compound 8, incanoside C] , and I need its recorded pIC50.
## Output 3.75

## Input CC1OC(OC2C(O)C(OCCc3ccccc3)OC(CO)C2OC(=O)C=Cc2ccc(O)c(O)c2)C(O)C(O)C1O (stereo not drawn) [Compound 5, jionoside C] , same question.
## Output 3.80

## Input Entry `O=C(O)C[C@H]1CCC(=O)[C@@H]1C/C=C\CCO[C@@H]1O[C@H](COC(=O)/C=C/c2ccc(O)c(O)c2)[C@@H](O)[C@H](O)[C@H]1O` please
## Output < 3.00

## Input Subsequent entry: COc1ccc(CCO[C@@H]2O[C@H](CO)[C@@H](OC(=O)/C=C/c3ccc(O)c(O)c3)[C@H](O[C@@H]3O[C@@H](C)[C@H](O)[C@@H](O)[C@H]3O)[C@H]2O)cc1OC [Compound 7, brachynoside]
## Output < 3.00

## Input Another compound to look at: COc1ccc(CCO[C@@H]2O[C@H](CO)[C@@H](OC(=O)/C=C/c3ccc(O)c(O)c3)[C@H](O[C@@H]3O[C@@H](C)[C@H](O)[C@@H](O)[C@H]3O)[C@H]2O)cc1O [Compound 6, jionoside D]
## Output < 3.00
